target: Influenza virus A/Suita/1/2009pdm (H1N1 2009 pandemic) (Influenza A virus A/Suita/1/2009pdm (H1N1pdm)); assay: cell-based or functional assay
Measured Neutralizing activity (%) at 250 µg/ml, listed per entry for reference.
quantity name: Neutralizing activity (%) at 250 µg/ml

{"columns": ["binder", "quantity name", "value units", "observed value"],
 "data": [
  ["Group 51 representative clone F083-302, Fab-PP-type antibody (Fab, V domains shown) VH: QVQLVQSGAEVKKPGSSVKVSCEASGATFSSNAFSWVRQAPGQGPEWMGGIITMFRKAEYAQKFQGRVTITAGELGSTAYMEVRSLTFEDTAVYYCARHSGYHLIGYFDSWGQGTLVTVSS VL: QSVLTQPPSVSAAPGQKVTISCSGTTSNIGNNYVSWYQQLPGAAPKLLIYDNNKRPSGIPDRFSGSKSDTSATLGITGLQTGDEADYYCGTWVSSLSVWVFGGGTKLTVLG", "Neutralizing activity (%) at 250 µg/ml", "%", 100],
  ["Group 48 representative clone F083-389, Fab-PP-type antibody (Fab, V domains shown) VH: QVQLVQSGAEVKKPGSSVKVSCKASGDIFNKFAITWVRQAPGQGLEWMGGITALFATTSYAQKFQDRVTINWDESTTTAFMELSSLRFEDTAVYYCARGPNYYETYLDNWGQGTLVTVSS VL: EIVLTQSPTILSASVGDRVTITCRASQSISKWLAWYQQKPGKVPKLLIYMASTLESGVPSRFSGSGSGSEFTLTISSLQPGDFATYYCQQYNSYPRTFGQGTKVEINV", "Neutralizing activity (%) at 250 µg/ml", "%", 100],
  ["Group 65 representative clone F083-366, Fab-PP-type antibody (Fab, V domains shown) VH: QVQLVQSGSEVKKPGSSVKVSCKASRGIFSSYAISWVRQAPGQGLEWMGAVIPMFGTLKYAENFQGRITISADKSMSAAYMELSSLRSEDTAVYYCARNYYGSGTYFNDAFDIWGQGTMVTVSS VL: QSVLTQPPSGSGAPGQRVTISCTGGNSNIGAGYDVNGYQQLPGKAPKLLIYGNNNRPSGVPDRFSGSKSGTSASLAITGLQVEDEAHYYCQSYDNGLSGSVFGGGTQLTVLG", "Neutralizing activity (%) at 250 µg/ml", "%", 19.2],
  ["Group 59 representative clone F083-351, Fab-PP-type antibody (Fab, V domains shown) VH: QVQLVQSGADVKKAGSSVKVSCKASGRTFGNYAISWVRQAPGQGLEWMGGITPIFGAANYAQKFQGRVTISADLSTRMVYMDLSSLRSDDTAFYYCAGHPMYHYGSAMDYWGQGTLVTVSS VL: QSVLTQPPSASGTPGQRVSISCFGSRSNVGSSSVNWYQQLPGRAPKLLIQRNDQRPSGVPDRFSGSKSGTSASLAISGLQSDDESTYYCAAWDDSVKSVVFGGGTQLTVLG", "Neutralizing activity (%) at 250 µg/ml", "%", 85.6],
  ["Group 36 representative clone F082-243, Fab-PP-type antibody (Fab, V domains shown) VH: QVQLQQSGAEVKKPGSSVKVSCKASGGIFRKNAISWVRQAPGQGLEWMGGIIAIFGTANYAQKFQGRVTITADDSTNTVYMELTSLRYEDTAVYYCARGPNYYENYFDFWGQGTLVTVSS VL: EIVLTQSPSSLSASLRDTVTITCRTSQAITNYLAWYQQRPGKAPKLLIYAASVLQSGVPSRFSGSGSGTDFTLTISSLQPEDFATYYCQKYDSAPYTFGQGTKLEIK", "Neutralizing activity (%) at 250 µg/ml", "%", 85.9],
  ["Group 52 representative clone F083-328, Fab-PP-type antibody (Fab, V domains shown) VH: QVQLVQSGAEVKKPGSSVKLSCKASGGTLRSYALSWVRQAPGEGLEWMGGISAIFNTATYAQNVQGRVTITADESTNTFYLEVSSLRSDDTAVYYCATSGTYYVSFFDYWGQGTLVTVSS VL: DIVLTQSPSTLSASVGDRVTLTCRASQSIGSLMAWYQQQPGKPPKLLIYRASNLETGVPSRFTGSGSGTEFALTISSLQPDDVGTYYCQHFKTFSRTFGQGTKVEIK", "Neutralizing activity (%) at 250 µg/ml", "%", 100]
]}
